test system: Wolbachia pipientis; assay: Anti-Wolbachia Cell-Based Screen; type: functional; set-up: scale not given: in the data most compounds retested in dose-response had high values; details: 5 µM
About 13,000 (27%) of roughly 48,000 compounds showed an effect of 50% or more. The list shows a part of the results.
Give measured Percent Effect for each item. Keep answers brief.
Field: numeric (%). Do not append units.

Req: I am curious: what Percent Effect value has been reported for "Cc1cccc(CN2C[C@@H]3COC[C@]3(COc3ccc(C#N)cn3)C2)n1" ?
Resp: -1.985

Req: Also check "COCCN1CCc2c(c(COc3cccnc3)nn2C)C1.O=C(O)C(F)(F)F.O=C(O)C(F)(F)F"
Resp: 96.91

Req: Also check "c1ccc(COC[C@]23COC[C@H]2CN(c2ncccn2)C3)nc1"
Resp: 107.1

Req: Also check "O=S(=O)(c1ccccc1)N1C[C@@H]2COC[C@]2(COCC2CC2)C1"
Resp: 4.427

Req: Also check "Cn1nc(COc2cccnc2)c2c1CCN(Cc1ccco1)C2.O=C(O)C(F)(F)F.O=C(O)C(F)(F)F"
Resp: -12.77

* * *

tested on: Wolbachia pipientis; assay: Anti-Wolbachia Cell-Based Screen; type: functional; parameters: scale not given: in the data most compounds retested in dose-response had high values; settings: 5 µM
Out of some 48,000 compounds screened, about 13,000 (27%) showed an effect of 50% or more. The list shows a part of the results.
measuredMetric: Percent Effect (%)
Field: numeric (%). Do not append units.

Req: I am curious: what Percent Effect value has been reported for "CCC(CC)CN1CCCn2nc(CNC(=O)COC)cc2C1" ?
Resp: 4.127

Req: Also check O=C1NCCCCC1Sc1ccc(F)cc1F (centres undefined)
Resp: 103.3

Req: Also check "CC(C)c1nnc(NCc2cc3n(n2)CCN(C2CCCCC2)C3)s1"
Resp: 8.692

Req: Also check "Cl.Cl.O=C(NCc1cncc2c1CCN(C1CCOCC1)C2)c1ccno1"
Resp: 114.6

Req: Also check O=C1NCCCCC1Sc1ccccc1F (centres undefined)
Resp: 86.32

Req: Also check Cl.Cl.O=C(NCc1cncc2c1CCN(CC1CCOC1)C2)c1ccno1 (centres undefined)
Resp: 2.196

Req: Also check Cl.Cl.O=C(NCc1cncc2c1CCN(CC1CCOC1)C2)c1ccco1 (centres undefined)
Resp: 105

Req: Also check CCC(C)NC(=O)NCc1cc2n(n1)CCCN(C1CCCCC1)C2 (centres undefined)
Resp: 123

Req: Also check "CC(C)CN1CCCn2nc(CNC(=O)OCc3ccccc3)cc2C1"
Resp: 17.53

Req: Also check O=C1NCCCCC1Sc1nnc(C2CC2)n1C1CC1 (centres undefined)
Resp: -22.11

Req: Also check CCC(OC)C(=O)NCc1cc2n(n1)CCCN(C1CCCCC1)C2 (centres undefined)
Resp: 113.3

Req: Also check "Cl.Cl.O=C(NCc1cncc2c1CCN(Cc1ccccc1)C2)C1CC1"
Resp: 12.37

Req: Also check "CC(C)NCc1cc2n(n1)CCN(C1CCCCC1)C2"
Resp: -9.171

Req: Also check "Cl.Cl.O=C(NCc1cncc2c1CCN(Cc1cccc(F)c1)C2)C1CC1"
Resp: 1.539

Req: Also check O=C1NCCCCC1Sc1n[nH]c(=O)n1C1CC1 (centres undefined)
Resp: -5.028

Req: Also check "CN(CCN1CCCCCC1)Cc1cnc(N)nc1"
Resp: -0.8813

Req: Also check "CN[C@@H](CO)C(=O)NCc1cc2n(n1)CCCN(C1CCCCC1)C2"
Resp: 120.8

Req: Also check O=C1NCCCCC1Sc1nnc(N2CCCC2)n1C1CC1 (centres undefined)
Resp: 5.697

Req: Also check CCCOC(C)C(=O)NCc1cc2n(n1)CCCN(C1CCCCC1)C2 (centres undefined)
Resp: 111

Req: Also check "CN1CCN(Cc2cnc3n2CCN(Cc2cccnc2)CC3)CC1.O=C(O)C(F)(F)F.O=C(O)C(F)(F)F.O=C(O)C(F)(F)F"
Resp: 102.7

Req: Also check CCCN1CCCn2nc(CNC(=O)C3CCOC3)cc2C1 (centres undefined)
Resp: -8.283

Req: Also check Cc1cnn(CCNCC(O)COc2cccc(C(F)(F)F)c2)c1 (centres undefined)
Resp: -5.996

Req: Also check "COCC(=O)N1CCn2c(CN3CCN(C)CC3)cnc2C1.O=C(O)C(F)(F)F.O=C(O)C(F)(F)F"
Resp: -7.166

Req: Also check "CC(C)CN1CCC(C(=O)NCCNC(=O)c2ccco2)CC1"
Resp: -4.338
